# Ki per record follows
# systemName: T1, MDMX (In-house, 40 kD) (UniProt O15151 1-120, limits assumed)
# T1 construct: also called MDM4
# T1 sequence (looked up): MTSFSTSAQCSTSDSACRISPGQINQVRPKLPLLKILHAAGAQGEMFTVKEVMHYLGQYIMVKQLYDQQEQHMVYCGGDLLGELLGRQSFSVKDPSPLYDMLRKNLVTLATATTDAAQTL
# measurementNotes: competitive fluorescence polarization vs FAM-labeled linear peptide; column Ki (MDMX); grade means >1000 nM

# binder, Ki
records = [
    ("LTAAEYWAQAASAA (not fully specified; N-terminal acetyl (Ac); $r8 = alpha-Me R8-octenyl-alanine and $ = alpha-Me S5-pentenyl-alanine joined by an all-carbon crosslinker; Cba = cyclobutyl alanine; C-terminal amide (NH2), also called Ac-LTA$r8EYWAQCba$SAA-NH2) [SP252]", "> 1000 nM"),
    ("ETFAEYWAQAASAA (not fully specified; N-terminal Pam cap (abbreviation not explained in the filing); $r8 = alpha-Me R8-octenyl-alanine and $ = alpha-Me S5-pentenyl-alanine joined by an all-carbon crosslinker; Cba = cyclobutyl alanine; C-terminal amide (NH2), also called Pam-ETF$r8EYWAQCba$SAA-NH2) [SP250]", "> 1000 nM"),
]
